Test system: NCI-H460 lung
assay-name: NCI tumour cell line growth inhibition, 48 h
endpoint: TGI

Previously resolved entries follow.
CCOC(=O)C1=C(C)NC(=O)N([N+](=O)[O-])C1c1ccccc1C(F)(F)F (stereo not given); > 100 µM
CC1(C)CCc2cc3c(cc2O1)OCCC3=O; > 100 µM
O=c1cc(-c2ccccc2F)[nH]c2cc3c(cc12)OCO3; > 32.3 µM
CCOC(=O)c1c(NC(=S)Nc2ccc(C)cc2)sc2c1CCN(C)C2; > 100 µM
CC(O)CN1C(=O)NC(Cc2ccccc2)C1=O (stereo not given); > 100 µM

Inquiry: I am curious: what TGI value has been reported for CNC(=O)c1cc(Oc2ccc(NC(=O)Nc3ccc(Cl)c(OC(F)(F)F)c3)c(F)c2)ccn1 ?
Reply text: 17.6 µM

Inquiry: I am curious: what TGI value has been reported for COC(=O)NC/C=C\c1nc(CC/C=C\C(=O)OC2CC3CC(=O)O[C@@H](/C=C/CC(C)C)C[C@@H]4CCC(C)C(C[C@@H](OC)CC(C2)O3)O4)co1 (stereo not given in full) ?
Reply text: > 100 µM

---

# TGI values compiled below
Tested on: MALME-3M melanoma
assay-name: NCI tumour cell line growth inhibition, 48 h
Write it as a number; the unit µM goes unstated.

Previously resolved entries follow.
CCCCCCNc1nc(NCCCCCC)c2[nH]c(NCCCCCC)nc2n1; 16.1
Cc1ncc(NC(=O)c2ccc(CN3CCN(C)CC3)c(C(F)(F)F)c2)cc1Nc1nccc(-c2cccnc2)n1; 14.4
CCOC(=O)C(C)NC(=O)N(C)C12CC3CC(CC(C3)C1)C2 (configuration not stated); 497
Cc1ccc([N+](=O)[O-])c2c(NCCCN(C)C)ccnc12; 44.8

Inquiry: I am curious: what TGI value has been reported for Cc1ccc2c(c1)C(=O)/C(=C\c1ccc(Cl)cc1)CCS2(=O)=O ?
Reply text: 6.42

Inquiry: I am curious: what TGI value has been reported for FC(F)=C(c1ccc(-c2ccc(Cl)cc2)cc1)C(F)(F)F ?
Reply text: 31.3

Inquiry: I am curious: what TGI value has been reported for COc1cc2c3c(n(CCCN4CCC(N)CC4)c(=O)c2cc1OC)-c1cc2c(cc1C3=O)OCO2 ?
Reply text: 9.89

Inquiry: I am curious: what TGI value has been reported for CC(C)(C)c1ccc2c(c1)OCc1n[nH]c(n1)COc1cc(C(C)(C)C)ccc1OCCOCCO2 ?
Reply text: 7.62

Inquiry: I am curious: what TGI value has been reported for N#Cc1c(-c2ccccc2)nc2c(c(-c3ccccc3)nn2-c2ccccc2)c1-c1ccc(O)cc1 ?
Reply text: 3.83

Inquiry: I am curious: what TGI value has been reported for C=C(C)[C@@H]1CC[C@@]2(C(=O)O)CC[C@]3(C)C(CCC4[C@@]5(C)CCC(OS(=O)(=O)c6ccccc6)C(C)(C)C5CC[C@]43C)C12 (some centres not stated) ?
Reply text: 26

Inquiry: I am curious: what TGI value has been reported for CCCNCc1cc(C)cc2c1nc(N1CCNCC1)n2Cc1cc(C)c(F)c(C)c1 ?
Reply text: 3.53

Inquiry: I am curious: what TGI value has been reported for Cc1ccc2/c(=C/c3ccc(N(C)C)cc3)c3cc(-c4ccccc4)[n+](C)n3c2c1 ?
Reply text: 1.17

Inquiry: I am curious: what TGI value has been reported for O=C(c1ccccc1)[C@H]1Nc2cnccc2C2c3ccccc3CC21 (some centres not stated) ?
Reply text: 27.4

Inquiry: I am curious: what TGI value has been reported for COc1ccc(N2C(=O)C3c4[nH]c5ccccc5c4C4C(C)CCCC4C3C2=O)cc1 (configuration not stated) ?
Reply text: 52.6

Inquiry: I am curious: what TGI value has been reported for COc1ccc(NC2=C(Br)C(=O)C(C)=C(C)C2=O)cc1 ?
Reply text: 28.3

Inquiry: I am curious: what TGI value has been reported for NS(=O)(=O)c1ccc(NC(=O)c2cccc3c(=O)c4ccccc4[nH]c23)cc1 ?
Reply text: 94.8

Inquiry: I am curious: what TGI value has been reported for CC(=O)n1c(-c2ccc(Cl)cc2)nc2c(c1=O)C(c1ccc(Cl)cc1)c1sc3c(Cl)cccc3c1O2 (configuration not stated) ?
Reply text: 2.5

---

# TGI values compiled below
Test system: SK-MEL-28 melanoma
assay-name: NCI tumour cell line growth inhibition, 48 h

CCn1c(-c2nonc2N)nc2ccc(F)cc21; > 25 µM
CC1CCCC(C(=O)/C(=C/c2cccc(Cl)c2)C(=O)C(=O)O)C1 (stereo unspecified); > 100 µM
C(=N/Nc1ccc(-c2nc3ccccc3[nH]2)cc1)/c1c(-c2ccccc2)[nH]c2ccccc12; > 100 µM
Cc1c(C(=O)NN)nnn1-c1ccnc2c(C(F)(F)F)cccc12; > 100 µM
O=c1oc2ccccc2c2nc3ccccc3cc12; > 100 µM

Inquiry: I am curious: what TGI value has been reported for CCOC(=O)C(NC(=O)c1ccc(N=NN(C)C)cc1)C(C)C (stereo unspecified) ?
Reply text: > 100 µM

Inquiry: I am curious: what TGI value has been reported for CNC(=O)c1cn(C[C@H](F)CCc2ccc(NC(=O)Cc3cc(OC4CC(F)(F)C4)cc(C)n3)nn2)nn1 ?
Reply text: > 100 µM

Inquiry: I am curious: what TGI value has been reported for Cc1ccc(C(=O)c2[nH]c(Nc3cc(C)ccn3)c(C(=S)Nc3ccccc3)c2N)cc1 ?
Reply text: > 100 µM

Inquiry: I am curious: what TGI value has been reported for NC(CCSCC(F)F)C(=O)O (stereo unspecified) ?
Reply text: > 100 µM

Inquiry: I am curious: what TGI value has been reported for COc1ccc(CN2C(=O)C(=O)N(C)C2=O)c2ccccc12 ?
Reply text: > 10 µM

Inquiry: I am curious: what TGI value has been reported for COC1OC2COC(C)(C)OC2C2OC(C)(C)OC12 (stereo unspecified) ?
Reply text: > 100 µM

---

Test system: HCT-15 colon
assay-name: NCI tumour cell line growth inhibition, 48 h
# TGI values compiled below
Write it as a number; the unit µM goes unstated.

CCOc1cccc2nc3cccc(C(=O)NCCN(C)C)c3nc12; 7.47

--- query ---
Inquiry: I am curious: what TGI value has been reported for CC1=C(C)C(=O)O[C@@H]([C@](C)(O)[C@]2(O)CC[C@@]3(O)[C@@H]4C[C@H]5O[C@]56CC=CC(=O)[C@]6(C)[C@H]4CC[C@]23C)C1 ?
Reply text: 1.25

---

System: SN12C renal
assay-name: NCI tumour cell line growth inhibition, 48 h
endpoint: TGI

Previously resolved entries follow.
COc1cc(/C=C/c2cc(=O)cc(/C=C/c3ccc(O)c(OC)c3)o2)ccc1O; > 100 µM
CN1CCN(C)C1c1cccc(C2N(C)CCN2C)c1; > 100 µM
COc1ccc(C(=O)C(C(=O)CCC(=O)Nc2cccc(C(F)(F)F)c2)c2ccccc2)cc1 (configuration not stated); > 100 µM
CC1(C)[C@@H]2C[C@H]1c1cnc(-c3ccccn3)cc1[C@H]2C(O)[C@@H]1c2cc(-c3ccccn3)ncc2[C@H]2C[C@@H]1C2(C)C (some centres not stated); 1.89 µM
NC(CCSCC(F)F)C(=O)O (configuration not stated); > 100 µM
COc1ccc(CCCCl)c(C2=NCCc3ccccc32)c1; > 100 µM
CCN(Cc1c(F)cccc1F)c1ccc(CO)c(Cl)c1; 58.5 µM
NCCN1CCN(c2nccc(-c3ccc4ccccc4c3)n2)CC1; 3.81 µM

Inquiry: I am curious: what TGI value has been reported for CNC(=O)c1cc(Oc2ccc(NC(=O)Nc3ccc(Cl)c(OC(F)(F)F)c3)c(F)c2)ccn1 ?
Reply text: 23 µM

Inquiry: I am curious: what TGI value has been reported for NC1=NC(=O)C(CC(=O)Nc2ccc([N+](=O)[O-])cc2[N+](=O)[O-])S1 (configuration not stated) ?
Reply text: > 100 µM

Inquiry: I am curious: what TGI value has been reported for Cc1cc(C)nc(NS(=O)(=O)c2ccc(Nc3c4ccccc4nc4c(C(=O)N5CCN(CCOS(C)(=O)=O)CC5)ccc(Cl)c34)cc2)n1 ?
Reply text: > 100 µM

Inquiry: I am curious: what TGI value has been reported for CCOC(=O)c1c(NC(=S)Nc2ccc(C)cc2)sc2c1CCN(C)C2 ?
Reply text: > 100 µM

Inquiry: I am curious: what TGI value has been reported for COc1cc(OC)c(C2c3cc4c(cc3OC(N3CCOCC3)C2C)OCO4)c(OC)c1 (configuration not stated) ?
Reply text: > 100 µM

Inquiry: I am curious: what TGI value has been reported for CN(C)CCNC(=O)Nc1c(C#N)[n+]([O-])c2cc(Cl)c(Cl)cc2[n+]1[O-] ?
Reply text: > 100 µM

Inquiry: I am curious: what TGI value has been reported for O=P(O)(O)C(O)(Cn1ccnc1)P(=O)(O)O ?
Reply text: > 100 µM

Inquiry: I am curious: what TGI value has been reported for CCn1c(-c2nonc2N)nc2ccc(F)cc21 ?
Reply text: > 25 µM

Inquiry: I am curious: what TGI value has been reported for CCCCCCNc1nc(NCCCCCC)c2[nH]c(NCCCCCC)nc2n1 ?
Reply text: 17.6 µM

Inquiry: I am curious: what TGI value has been reported for Cc1ccsc1C(=S)Nc1ccc(Cl)c(C(=O)OC(C(C)C)C(C)C)c1 ?
Reply text: > 100 µM

Inquiry: I am curious: what TGI value has been reported for COc1ccc2c(c1)C=CC(C#N)N2C(=O)c1ccccc1 (configuration not stated) ?
Reply text: > 100 µM
